pKi: −log10 of the molar value.
Listing of pKi toward Nitric oxide synthase 1 (Rattus norvegicus, UniProt P29476), each taken from a published source.
reported-property: pKi

// below: answered compounds
>  <structure-notation>
Nc1cccc(C[C@@H]2CNC[C@@H]2OCCNCCc2cccc(F)c2)n1

>  <reported-measurement>
7.30

$$$$
>  <structure-notation>
Cc1cc(N)nc(C[C@@H]2CNC[C@@H]2OCCNCC(F)(F)c2cccc(F)c2F)c1

>  <reported-measurement>
6.74

$$$$

I: Cc1cc(N)nc(CCCN2CC(F)(F)C2)c1
II: Cc1cc(N)nc(CCc2cc(C#N)cc(NCCc3ccccn3)c2)c1
Field: entry with larger pKi (options I / II ). Answer with the label corresponding to your selection.
I
(I: 7.02, II: 5.90)

---

Hi, quick share: literature Ki data for Nitric oxide synthase 1 (Rattus norvegicus), several sources combined.
reported-property: Ki (nM)

>  <molecule>
Nc1cccc(C[C@H]2CNC[C@H]2N[C@@H]2CCNC2)n1 (racemic)

>  <reported-measurement>
1360

$$$$
>  <molecule>
Cc1cc(N)nc(C[C@H]2CNC[C@H]2NC(=O)CNCCc2cccc(F)c2)c1 (racemic)

>  <reported-measurement>
53

$$$$
>  <molecule>
Cc1cc(N)nc(C[C@@H]2CNC[C@@H]2OCCNC2CC2c2cccc(F)c2)c1 (mixture of isomers)

>  <reported-measurement>
170

$$$$
>  <molecule>
Nc1ccc2ccc(CNCCCc3cccc(F)c3)cc2n1

>  <reported-measurement>
60

$$$$
>  <molecule>
Cc1cc(N)nc(C[C@@H]2CNC[C@@H]2OCCNCC(F)(F)c2cccc(Cl)c2)c1

>  <reported-measurement>
86

$$$$
>  <molecule>
CNCc1cccc(-c2cc(F)cc(CCc3cc(C)cc(N)n3)c2)c1

>  <reported-measurement>
44

$$$$
>  <molecule>
CNCCCc1cccc(CCc2cc(C)cc(N)n2)c1

>  <reported-measurement>
48

$$$$

A: Cc1cc(N)nc2cc(-c3cccc(CN)c3)ccc12.Cl.Cl
B: Nc1cccc(C[C@H]2CNC[C@H]2OCCNCCc2cccc(F)c2)n1
C: Nc1cccc(C[C@H]2CNC[C@H]2N[C@@H]2CCN(Cc3ccccc3)C2)n1 (racemic)
Your job: order these 3 records by Ki, ascending. Reply with the labels, ordered as the question asks.
A, B, C
(A: 55 nM, B: 220 nM, C: 2740 nM)

---

Header: Ki / Nitric oxide synthase 1 (Rattus norvegicus, UniProt P29476) / multiple publications
reported-property: Ki (nM)

1: CNCCCc1cc(F)cc(CCc2cc(C)cc(N)n2)c1
2: CNCCCc1cc(CCc2cc(C)cc(N)n2)cc(C(F)(F)F)c1
Would you kindly point out which of 1 and 2 has the smaller Ki figure? Returns: label corresponding to the selected item.
1

I: Cc1cc(N)nc(CCCN2CCC(F)(F)CC2)c1
II: Nc1cccc(C[C@H]2CNC[C@H]2NC[C@H](N)Cc2ccccc2)n1 (racemic)
# argmax over Ki for candidates I and II Your choice should be expressed through its label.
II
(II: 2420 nM, I: 46 nM)

a: CNCc1cccc(-c2cncc(CCc3cc(C)cc(N)n3)c2)c1
b: Cc1cc(N)nc(C[C@@H]2CNC[C@@H]2OCCNCC(F)(F)c2cccc(F)c2)c1
c: Nc1cccc(C[C@H]2CNC[C@H]2N[C@H]2CCNC2)n1 (racemic)
d: Nc1ccc2cc(CCNCCCc3cccc(F)c3)ccc2n1
Arrange items by their Ki values in increasing order. Dear reader, please state the labels in the requested order.
a, b, c, d
(a: 47 nM, b: 110 nM, c: 1260 nM, d: 4370 nM)

I: CNCc1ccc(-c2cncc(CCc3cc(C)cc(N)n3)c2)cc1
II: Cc1cc(N)nc(C[C@H]2CNC[C@H]2NCCNCc2ccc(Cl)c(Cl)c2)c1 (racemic)
# return whichever of I and II has the smaller Ki Provide the label of your selected option as the answer.
I
(I: 57 nM, II: 157 nM)
